MIC overview
Tested on: Mycobacterium avium
Settings: 104
measuredQuantity: MIC (µg/mL)

- compound: "CSc1ccc2c(c1)N(CCC1CCCCN1C)c1ccccc1S2 (stereo not given)"
  resultOperator: "="
  valueReported: 4
- compound: "CN(C)CCCN1c2ccccc2Sc2ccc(Cl)cc21"
  resultOperator: "="
  valueReported: 2
- compound: "CCCOc1ccc(-c2cn(CCN(CC)CC)c3ccccc3c2=O)cc1"
  resultOperator: "="
  valueReported: 4
- compound: "CCCOc1ccc(-c2cn(CCN3CCCCCC3)c3ccccc3c2=O)cc1"
  resultOperator: "="
  valueReported: 4
- compound: "CCCOc1ccc(-c2cn(CCN3CCCCC3)c3ccccc3c2=O)cc1"
  resultOperator: "<"
  valueReported: 0.125

###

MIC overview
Tested on: Mycobacterium avium
Conditions: 104 mc'2 4
measuredQuantity: MIC (µg/mL)

- molecule: "CCCOc1ccc(-c2cn(CCN3CCCCC3)c3ccccc3c2=O)cc1"
  targetOrTestSystem: "Mycobacterium avium"
  resultOperator: "<"
  valueReported: 4
- molecule: "CSc1ccc2c(c1)N(CCC1CCCCN1C)c1ccccc1S2 (stereo not given) [THIORIDAZINE]"
  targetOrTestSystem: "Mycobacterium avium"
  resultOperator: "="
  valueReported: 128
- molecule: "CCCOc1ccc(-c2cn(CCN3CCCCCC3)c3ccccc3c2=O)cc1"
  targetOrTestSystem: "Mycobacterium avium"
  resultOperator: "<"
  valueReported: 4
- molecule: "CN(C)CCCN1c2ccccc2Sc2ccc(Cl)cc21 [CHLORPROMAZINE]"
  targetOrTestSystem: "Mycobacterium avium"
  resultOperator: "="
  valueReported: 128
- molecule: "CCCOc1ccc(-c2cn(CCN(CC)CC)c3ccccc3c2=O)cc1"
  targetOrTestSystem: "Mycobacterium avium"
  resultOperator: "="
  valueReported: 128

###

Assay: Cytotoxicity in human monocyte-derived macrophages assessed as reduction in cell viability incubated for 3 days by alamar blue dye based assay
Design: species or system Macrophage cell line
Conditions: human monocyte-derived macrophages

- compound: "CSc1ccc2c(c1)N(CCC1CCCCN1C)c1ccccc1S2 (configuration not stated)"
  CC50 at 72 h (µM): 13.8
- compound: "COc1ccc(CCN(C)CCCC(C#N)(c2ccc(OC)c(OC)c2)C(C)C)cc1OC (configuration not stated)"
  CC50 at 72 h (µM): 117
- compound: "CCCOc1ccc(-c2cn(CCN(CC)CC)c3ccccc3c2=O)cc1"
  CC50 at 72 h (µM): 56.9
- compound: "CCCOc1ccc(-c2cn(CCN3CCCCC3)c3ccccc3c2=O)cc1"
  CC50 at 72 h (µM): 82.2
- compound: "CCCOc1ccc(-c2cn(CCN3CCCCCC3)c3ccccc3c2=O)cc1"
  CC50 at 72 h (µM): 50
- compound: "COc1ccc(-c2coc3cc(O)cc(O)c3c2=O)cc1"
  CC50 at 72 h (µM): 50.4
- compound: "CN(C)CCCN1c2ccccc2Sc2ccc(Cl)cc21"
  CC50 at 72 h (µM): 22.2

###

Test system: Mycobacterium avium
Conditions: 104 mc'2 3
MIC overview

- molecule: "CCCOc1ccc(-c2cn(CCN3CCCCCC3)c3ccccc3c2=O)cc1"
  resultOperator: "="
  MIC (µg/mL): 32
- molecule: "CSc1ccc2c(c1)N(CCC1CCCCN1C)c1ccccc1S2 (stereo not given)"
  resultOperator: ">"
  MIC (µg/mL): 512
- molecule: "CCCOc1ccc(-c2cn(CCN3CCCCC3)c3ccccc3c2=O)cc1"
  resultOperator: "="
  MIC (µg/mL): 256
- molecule: "CCCOc1ccc(-c2cn(CCN(CC)CC)c3ccccc3c2=O)cc1"
  resultOperator: "="
  MIC (µg/mL): 512
- molecule: "CN(C)CCCN1c2ccccc2Sc2ccc(Cl)cc21"
  resultOperator: ">"
  MIC (µg/mL): 512

###

MIC overview
Test system: Mycobacterium avium
Settings: isolate MAV4

- compound: "CCCOc1ccc(-c2cn(CCN3CCCCC3)c3ccccc3c2=O)cc1"
  MIC: "< 4 µg/mL"
- compound: "CCCOc1ccc(-c2cn(CCN(CC)CC)c3ccccc3c2=O)cc1"
  MIC: "16 µg/mL"
- compound: "CSc1ccc2c(c1)N(CCC1CCCCN1C)c1ccccc1S2 (stereo not given)"
  MIC: "64 µg/mL"
- compound: "CCCOc1ccc(-c2cn(CCN3CCCCCC3)c3ccccc3c2=O)cc1"
  MIC: "< 2 µg/mL"
- compound: "CN(C)CCCN1c2ccccc2Sc2ccc(Cl)cc21"
  MIC: "16 µg/mL"

###

Tested on: Mycobacterium avium
Details: 104 mc'2 3
measuredQuantity: MIC (mg/L)

- molecule: "CN(C)CCCN1c2ccccc2Sc2ccc(Cl)cc21"
  targetOrTestSystem: "Mycobacterium avium"
  resultOperator: "="
  valueReported: 1
- molecule: "CCCOc1ccc(-c2cn(CCN3CCCCCC3)c3ccccc3c2=O)cc1"
  targetOrTestSystem: "Mycobacterium avium"
  resultOperator: "<"
  valueReported: 0.125
- molecule: "CSc1ccc2c(c1)N(CCC1CCCCN1C)c1ccccc1S2 (stereo not given)"
  targetOrTestSystem: "Mycobacterium avium"
  resultOperator: "<"
  valueReported: 0.125
- molecule: "CCCOc1ccc(-c2cn(CCN(CC)CC)c3ccccc3c2=O)cc1"
  targetOrTestSystem: "Mycobacterium avium"
  resultOperator: "="
  valueReported: 2
- molecule: "CCCOc1ccc(-c2cn(CCN3CCCCC3)c3ccccc3c2=O)cc1"
  targetOrTestSystem: "Mycobacterium avium"
  resultOperator: "<"
  valueReported: 0.125

###

Tested on: Mycobacterium avium
Details: isolate MAV3
MIC overview

- compound: "CSc1ccc2c(c1)N(CCC1CCCCN1C)c1ccccc1S2 (stereo not given) [THIORIDAZINE]"
  MIC, µg/mL: 4
- compound: "CCCOc1ccc(-c2cn(CCN3CCCCC3)c3ccccc3c2=O)cc1"
  MIC, µg/mL: 2
- compound: "CCCOc1ccc(-c2cn(CCN(CC)CC)c3ccccc3c2=O)cc1"
  MIC, µg/mL: 8
- compound: "CCCOc1ccc(-c2cn(CCN3CCCCCC3)c3ccccc3c2=O)cc1"
  MIC, µg/mL: 2
- compound: "CN(C)CCCN1c2ccccc2Sc2ccc(Cl)cc21 [CHLORPROMAZINE]"
  MIC, µg/mL: 4

###

MIC overview
System: Mycobacterium avium
Settings: 104
measuredQuantity: MIC (mg/L)

- compound: "CCCOc1ccc(-c2cn(CCN(CC)CC)c3ccccc3c2=O)cc1"
  resultOperator: "="
  valueReported: 16
- compound: "CN(C)CCCN1c2ccccc2Sc2ccc(Cl)cc21"
  resultOperator: "="
  valueReported: 8
- compound: "CSc1ccc2c(c1)N(CCC1CCCCN1C)c1ccccc1S2 (stereo not given)"
  resultOperator: "="
  valueReported: 64
- compound: "CCCOc1ccc(-c2cn(CCN3CCCCCC3)c3ccccc3c2=O)cc1"
  resultOperator: "<"
  valueReported: 4
- compound: "CCCOc1ccc(-c2cn(CCN3CCCCC3)c3ccccc3c2=O)cc1"
  resultOperator: "<"
  valueReported: 0.125

###

Test system: Mycobacterium avium
Settings: isolate MAV1

- compound: "CN(C)CCCN1c2ccccc2Sc2ccc(Cl)cc21 [CHLORPROMAZINE]"
  MIC: "0.0625 µg/mL"
- compound: "CCCOc1ccc(-c2cn(CCN3CCCCCC3)c3ccccc3c2=O)cc1"
  MIC: "< 0.125 µg/mL"
- compound: "CSc1ccc2c(c1)N(CCC1CCCCN1C)c1ccccc1S2 (stereo not given) [THIORIDAZINE]"
  MIC: "0.0625 µg/mL"
- compound: "CCCOc1ccc(-c2cn(CCN(CC)CC)c3ccccc3c2=O)cc1"
  MIC: "2 µg/mL"
- compound: "CCCOc1ccc(-c2cn(CCN3CCCCC3)c3ccccc3c2=O)cc1"
  MIC: "0.25 µg/mL"

###

MIC overview
Test system: Mycobacterium avium
Settings: isolate MAV1

- compound: "CSc1ccc2c(c1)N(CCC1CCCCN1C)c1ccccc1S2 (stereo not given)"
  resultUnits: "µg/mL"
  MIC: 0.78
- compound: "CCCOc1ccc(-c2cn(CCN(CC)CC)c3ccccc3c2=O)cc1"
  resultUnits: "µg/mL"
  MIC: 6.25
- compound: "CCCOc1ccc(-c2cn(CCN3CCCCCC3)c3ccccc3c2=O)cc1"
  resultUnits: "µg/mL"
  MIC: 1.56
- compound: "CCCOc1ccc(-c2cn(CCN3CCCCC3)c3ccccc3c2=O)cc1"
  resultUnits: "µg/mL"
  MIC: 1.56
- compound: "CN(C)CCCN1c2ccccc2Sc2ccc(Cl)cc21"
  resultUnits: "µg/mL"
  MIC: 1.56

###

Recorded MIC values (Mycobacterium avium subsp. avium ATCC 25291) are given below.
measuredQuantity: MIC

- compound: "CN(C)CCCN1c2ccccc2Sc2ccc(Cl)cc21"
  measuredQuantity: "MIC"
  valueReported: "1 µg/mL"
- compound: "CCCOc1ccc(-c2cn(CCN3CCCCCC3)c3ccccc3c2=O)cc1"
  measuredQuantity: "MIC"
  valueReported: "8 µg/mL"
- compound: "CSc1ccc2c(c1)N(CCC1CCCCN1C)c1ccccc1S2 (stereo not given)"
  measuredQuantity: "MIC"
  valueReported: "2 µg/mL"
- compound: "CCCOc1ccc(-c2cn(CCN(CC)CC)c3ccccc3c2=O)cc1"
  measuredQuantity: "MIC"
  valueReported: "8 µg/mL"
- compound: "CCCOc1ccc(-c2cn(CCN3CCCCC3)c3ccccc3c2=O)cc1"
  measuredQuantity: "MIC"
  valueReported: "4 µg/mL"
